Provenance of the data: patent US20250101120A1

# SYSTEM NAME: T1, hFc-hFasL (fusion protein of human Fc fragment and human FasL extracellular region) (human, UniProt P48023 134-281)
# T1 construct: the order here follows the name hFc-hFasL; also called hFc-FasL; hFc-hFasL antigen; not shown: human Fc fragment tag
# T1 sequence: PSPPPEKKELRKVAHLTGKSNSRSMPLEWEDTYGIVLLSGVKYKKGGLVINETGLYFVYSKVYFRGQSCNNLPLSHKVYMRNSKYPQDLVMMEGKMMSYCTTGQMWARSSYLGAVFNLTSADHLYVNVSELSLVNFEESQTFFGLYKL
# ASSAY DETAILS: ELISA, hFc-hFasL coated, antibody titrated, anti-human kappa-HRP (protocol of Example 3.2)
PROPERTY: EC50
Write down the value, and be sure its unit follows.

Entry humFL-M88-18 (antibody, human IgG4, V domains shown, Humanized FL-M88) VH: QVQLVQSGAEVKKPGASVKVSCKASGYTFTDYTIHWVRQAPGQGLEWMGVISTYQGDASYNQKFKGRVTMTVDTSTSTVYMELSSLRSEDTAVYYCARFPDWDYAMDYWGQGTLVTVSS VL: EIVMTQSPATLSVSPGERATLSCKASQSVDYDGDSYMNWYQQKPGQPPRLLIYAASNLESGIPARFSGSGSGTEFTLTISSLQSEDFAVYYCQQSRELPYTFGQGTKLEIK — recorded EC50 = 0.272 nM

Entry humFL-M88-6 (antibody, human IgG4, V domains shown, Humanized FL-M88) VH: QVQLVQSGAEVKKPGASVKVSCKASGYTFTDYTIHWVRQAPGQGLEWMGVISTYQGDASYNQKFKGRVTMTVDTSTSTVYMELSSLRSEDTAVYYCARFPDWDYAMDYWGQGTLVTVSS VL: EIVMTQSPATLSVSPGERATLSCKASQSVDYDGDSYMNWYQQKPGQPPRLLIYAASNLESGIPARFSGSGSGTEFTLTISSLQSEDFAVYYCQHSRELPYTFGQGTKLEIK — recorded EC50 = 0.235 nM
